- TESTED_TARGET: α-1d adrenoreceptor (rat) (Rattus norvegicus, UniProt P23944)
- Construct: expressed in transfected cells; cDNA from TULCO; membranes
- Sequence (P23944 whole entry): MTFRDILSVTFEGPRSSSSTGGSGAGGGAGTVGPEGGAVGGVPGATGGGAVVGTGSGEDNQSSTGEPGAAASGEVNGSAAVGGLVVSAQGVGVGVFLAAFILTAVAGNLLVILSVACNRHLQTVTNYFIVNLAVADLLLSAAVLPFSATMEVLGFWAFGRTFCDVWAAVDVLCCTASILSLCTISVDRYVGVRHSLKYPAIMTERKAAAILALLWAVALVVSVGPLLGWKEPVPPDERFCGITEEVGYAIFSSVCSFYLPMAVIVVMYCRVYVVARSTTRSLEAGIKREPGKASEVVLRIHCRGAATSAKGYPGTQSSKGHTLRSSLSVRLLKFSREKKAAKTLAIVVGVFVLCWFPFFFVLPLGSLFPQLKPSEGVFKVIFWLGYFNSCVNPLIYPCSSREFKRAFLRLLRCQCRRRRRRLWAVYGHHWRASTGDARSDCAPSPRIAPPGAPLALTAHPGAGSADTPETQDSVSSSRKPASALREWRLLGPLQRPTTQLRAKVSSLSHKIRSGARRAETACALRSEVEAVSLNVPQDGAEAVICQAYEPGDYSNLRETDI
- METHOD_SUMMARY: In vitro [3H]-prazosin radioligand binding, cloned α-1d adrenoreceptor expressed in LTK cells
Counter-ions that a name gives are not always drawn.
MEASURED_PARAMETER: Ki (nM)
One number for each entry, in nM.

Could you report Ki for every entry in the following list?
1. COc1cccc2c1[C@@H]1CCN(CCCCn3c(=O)[nH]c4c(sc5cccnc54)c3=O)C[C@H]1CO2 (relative stereo) [Example 88, hydrochloride]
2. COc1cccc2c1[C@@H]1CCN(CCn3c(=O)[nH]c4c(sc5ccccc54)c3=O)C[C@H]1CO2 (relative stereo) [Example 90, hydrochloride]
3. COc1cc2[nH]c(=O)n(CCCCN3CC[C@H]4c5c(OC)cccc5OC[C@@H]4C3)c(=O)c2cc1OC (relative stereo) [Example 86, hydrochloride]

[0.259, 0.439, 0.398]

Could you report Ki for every entry in the following list?
1. COc1cc2[nH]c(=O)n(CCCCN3C[C@@H]4COc5cccc(OC)c5[C@H]4C3)c(=O)c2cc1OC (racemic) [Example 82, dihydrochloride]
2. COc1cccc2c1[C@@H]1CCN(CCCCn3c(=O)[nH]c4c(sc5ccccc54)c3=O)C[C@H]1CO2 (relative stereo) [Example 87, hydrochloride]

1: 1.58; 2: 0.704

Could you report Ki for every entry in the following list?
1. COc1cccc2c1[C@@H]1CCN(CCCn3c(=O)[nH]c4c(sc5ccccc54)c3=O)C[C@H]1CO2 (relative stereo) [Example 89, hydrochloride]
2. COc1cccc2c1[C@@H]1CCN(CCCn3c(=O)[nH]c4c(sc5ncccc54)c3=O)C[C@H]1CO2 (relative stereo) [Example 84, hydrochloride]

1. 0.061
2. 1.12

---

Please respond with reported Ki for every item in the list.
- TESTED_TARGET: α-1A adrenoreceptor (rat submaxillary gland) (Rattus norvegicus)
- Construct: Rat submaxillary glands were used for α-1A adrenoreceptors; from tissue; host or cells: rat submaxillary gland membranes
- METHOD_SUMMARY: In vitro [3H]-prazosin radioligand binding, pharmacologically defined α-1A adrenoreceptor (rat submaxillary gland)
Structures can show the parent of a compound that is named as a salt.
Remember to quote the unit after the number.

[[record]]
compound = "COc1cccc2c1[C@@H]1CCN(CCn3c(=O)[nH]c4c(sc5ccccc54)c3=O)C[C@H]1CO2 (relative stereo) [Example 90, hydrochloride]"
result = "323 pM"

[[record]]
compound = "COc1cccc2c1[C@@H]1CCN(CCCCn3c(=O)[nH]c4c(sc5ccccc54)c3=O)C[C@H]1CO2 (relative stereo) [Example 87, hydrochloride]"
result = "371 pM"

[[record]]
compound = "COc1cccc2c1[C@@H]1CCN(CCCn3c(=O)[nH]c4c(sc5ncccc54)c3=O)C[C@H]1CO2 (relative stereo) [Example 84, hydrochloride]"
result = "479 pM"


Kindly review the next compound as well.
Could you share which Ki value was measured for COc1cccc2c1[C@@H]1CCN(CCCCn3c(=O)[nH]c4c(sc5cccnc54)c3=O)C[C@H]1CO2 (relative stereo) [Example 88, hydrochloride] ?
188 pM

---

Please respond with reported Ki for every item in the list.
- TESTED_TARGET: α-1A adrenoreceptor (rat submaxillary gland) (Rattus norvegicus)
- Construct: Rat submaxillary glands were used for α-1A adrenoreceptors; from tissue; host or cells: rat submaxillary gland membranes
- Sequence (P43140 1-466): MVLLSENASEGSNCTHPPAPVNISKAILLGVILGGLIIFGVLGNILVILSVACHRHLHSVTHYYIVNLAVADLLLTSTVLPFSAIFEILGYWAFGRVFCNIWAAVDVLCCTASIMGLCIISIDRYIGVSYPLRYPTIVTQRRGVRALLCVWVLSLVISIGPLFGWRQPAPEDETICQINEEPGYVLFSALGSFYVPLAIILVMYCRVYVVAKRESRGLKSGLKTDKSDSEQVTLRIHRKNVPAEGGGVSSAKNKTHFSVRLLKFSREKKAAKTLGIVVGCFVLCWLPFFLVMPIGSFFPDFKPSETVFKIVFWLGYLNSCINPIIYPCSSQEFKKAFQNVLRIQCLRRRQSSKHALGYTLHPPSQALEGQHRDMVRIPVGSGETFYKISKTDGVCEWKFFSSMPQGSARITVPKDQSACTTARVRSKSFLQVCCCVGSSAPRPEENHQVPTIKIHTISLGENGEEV
- METHOD_SUMMARY: In vitro [3H]-prazosin radioligand binding, pharmacologically defined α-1A adrenoreceptor (rat submaxillary gland)
- ASSAY_CONDITIONS: rat submaxillary gland, [3H]prazosin 0.2 nM; read-out: Radioligand Binding (Ki; nM) 1A (Rat)
Counter-ions that a name gives are not always drawn.
One number for each entry, in nM.

[[record]]
molecule = "COc1ccc2c(n1)sc1c(=O)n(CCCCN3C[C@@H]4COc5cccc(OC)c5[C@@H]4C3)c(=O)[nH]c12 [Example 33, hydrochloride]"
tested_target = "α-1A adrenoreceptor (rat submaxillary gland) (Rattus norvegicus)"
value_units = "nM"
quantitative_readout = 0.811


Kindly review the next molecule as well.
Could you share which Ki value was measured for COc1cc2[nH]c(=O)n(CCN3CC[C@H]4c5c(OC)cccc5OC[C@@H]4C3)c(=O)c2cc1OC (relative stereo) [Example 91, hydrochloride] ?
0.102
